Reported Kd is given for each of the following binders.
Target: T1, recombinant human IL6R-his (human, UniProt P08887 20-365)
T1 construct: In house made; the entry includes the C-terminal His tag; also called human IL6R-his protein
T1 sequence: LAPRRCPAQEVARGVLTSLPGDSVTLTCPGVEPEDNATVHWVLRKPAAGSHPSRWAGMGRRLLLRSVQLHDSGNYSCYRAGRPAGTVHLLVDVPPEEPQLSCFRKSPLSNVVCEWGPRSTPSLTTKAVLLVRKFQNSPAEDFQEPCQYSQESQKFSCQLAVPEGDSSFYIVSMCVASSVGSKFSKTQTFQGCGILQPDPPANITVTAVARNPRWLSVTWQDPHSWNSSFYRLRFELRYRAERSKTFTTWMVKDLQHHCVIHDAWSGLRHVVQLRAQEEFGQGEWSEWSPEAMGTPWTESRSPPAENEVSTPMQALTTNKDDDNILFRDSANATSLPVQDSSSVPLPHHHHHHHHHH
Assay: SPR Biacore T200; mAb captured by anti-mouse IgG on CM5, antigen in flow, 1:1 fit
Metric: Kd (nM)

| Binder | Recorded result |
| --- | --- |
| mouse anti-IL6R monoclonal antibody 1H9 (antibody, V domains shown, Mouse hybridoma mAb) VH: QVQLQQPGAELVKPGASVKLSCKASGYTFTSYWMHWVKLRPGQGLEWIGEINPTNGRTNYYEKFKNRATLTADKSSSTAYMQLSSLTFEDSAVYFCAKFHYSRWYFDVWGTGTTVTVSS VL: DIVMTQSQKFMSTSVGDRVSITCKASQNVGTAVVWYQQKPGQSPKLLINPASNRYTGVPDRFTGSGSGTDFTLTISNMQSEDLADYFCQQYSSYPLTFGAGTKLELK | 1.08 |
| mouse anti-IL6R monoclonal antibody 1F7 (antibody, V domains shown, Mouse hybridoma mAb) VH: QVQLQQPGAELVKPGASVKLSCKASDYTFTSYWMHWVKQRPGQGLEWIGEINPSNGRTNYNEKFKNKATLTVDKSSSTAYVQLYSLTSEDSAVYYCARLSIHYVFDYWGQGTTLTVSS VL: ELVLTQSPTTMAASPGEKITFTCSASSSISSNYLHWYQQKPGFSPKLLISGTSNLASGVPPRFSGSGSGTSYSLTIVTMEAEDVATYYCQQGSGIPFTFGSGTKLEIK | 0.537 |
| mouse anti-IL6R monoclonal antibody 1H7 (antibody, V domains shown, Mouse hybridoma mAb) VH: QVQLQQPGTELVKPGASVKLSCKASGYTFTNYWMHWVKQRPGQGLDWIGEINPTNGRTNYNENFKSKATLTVDKSSSTAYMQLSSLTSEDSAVYYCARLNTHYVFDSWGQGTTLTLSS VL: EIVLTQSPTTLAASPGEKITFTCSVSSSISSNYLHWYQQKPGFSPKLLISRTSTLASGVPARFSGSGSGTSYSLTIGTMEAEDVATYYCQQGSGIPFTFGSGTKLELK | 0.308 |

Source listed as patent US20230167182A1.
